B1: FEM1A (parent)
chain: PCCSSSPEEPLNGESYESCCPTSR

Variants of: B1
procedure-text: protein stability index of a GFP-peptide fusion (GPS, HEK-293T) (PSI 1-6); higher = more stable;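 note: lentivirally expressed fusions sorted by FACS into six bins by GFP to DsRed ratio, PSI derived from sequencing read proportions per bin multiplied by bin number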
experimental-conditions: c terminus: a fixed tail appended
Label rule, in plain words: protein stability index of 4 and up is Fulfilled, under 4 is Not fulfilled.

Please tell me: is the variant PCCSSSPEEPLNGQSYESCCPTSR at or over 4 in terms of protein stability index?
Not fulfilled

Hello, I need to know if PCCSSSPEEPLNGESYNSCCPTSR has measured protein stability index not below 4. Thanks!
Not fulfilled

Say whether PCCSSSPERPLNGESYESCCPTSR shows protein stability index of 4 or more.
Not fulfilled

Is protein stability index for PCCSSSPEEPLIGESYESCCPTSR at or above 4?
Fulfilled

Given the entry TCCSSSPEEPLNGESYESCCPTSR , answer whether its protein stability index meets or surpasses 4.
Not fulfilled

Can PCCSSSPFEPLNGESYESCCPTSR be said to have protein stability index at or above 4?
Not fulfilled

Is reported protein stability index greater than or equal to 4 here: PCCSSSPEEPLQGESYESCCPTSR
Not fulfilled

Quick check: does PCCSSSPEEPLNGCSYESCCPTSR have protein stability index greater than or equal to 4?
Not fulfilled

Determine whether measured protein stability index meets or exceeds 4 for PCCSSSPEEPLNGESYTSCCPTSR
Not fulfilled

Determine whether this variant has protein stability index no lower than 4: PCCSSSPEEPLNGESYESCFPTSR
Not fulfilled

Dear colleague, could you confirm whether PCCSSSPEEPLNGESYESCCPTLR has protein stability index at or above 4?
Not fulfilled

Is protein stability index at least 4? Consider PCCSNSPEEPLNGESYESCCPTSR
Not fulfilled

Given PCCMSSPEEPLNGESYESCCPTSR , state whether its protein stability index is at least 4.
Not fulfilled

Quick check, protein stability index >= 4? PCCSSSPEEPYNGESYESCCPTSR
Not fulfilled

Would you say PCCSSSPEEPLNGESYESCCKTSR shows protein stability index at minimum 4?
Not fulfilled

Textbook exercise: given the entry PCCSSSPEEPLNGDSYESCCPTSR , state whether its protein stability index is greater than or equal to 4.
Not fulfilled

Given PCCSSSPEEPLNGESYESCCPTVR , state whether its protein stability index is at least 4.
Not fulfilled

Quick check: does PCCSSSPEEPLNGEGYESCCPTSR have protein stability index greater than or equal to 4?
Not fulfilled

Quick check, protein stability index >= 4? PCCCSSPEEPLNGESYESCCPTSR
Not fulfilled

Confirm if protein stability index reported for the variant PCCSSSPEEPLNGESYESCCPTSG is 4 or above.
Fulfilled

Entry PCCSMSPEEPLNGESYESCCPTSR : is its protein stability index no less than 4?
Not fulfilled

For this variant, is measured protein stability index 4 or higher? PCCSSSPEEPLNGESYESCCPTSK
Fulfilled

For this variant, is measured protein stability index 4 or higher? PCCSSSPEEPLNGLSYESCCPTSR
Not fulfilled

Is protein stability index for PCCSSSPEEPLNGESYELCCPTSR at or above 4?
Not fulfilled

# bool: protein stability index of PCCSSSPEEPLNGESYESHCPTSR >= 4
Not fulfilled

Textbook exercise: given the entry PCCSSIPEEPLNGESYESCCPTSR , state whether its protein stability index is greater than or equal to 4.
Not fulfilled

Please indicate if the recorded protein stability index for GCCSSSPEEPLNGESYESCCPTSR meets or exceeds 4.
Fulfilled

Can PCCSSSPEEPLNHESYESCCPTSR be said to have protein stability index at or above 4?
Fulfilled

Please tell me: is the variant PCCSSLPEEPLNGESYESCCPTSR at or over 4 in terms of protein stability index?
Not fulfilled

Test whether the variant PCCSSSPEEPNNGESYESCCPTSR records protein stability index of 4 or higher.
Fulfilled

Please tell me: is the variant PCCSSSPEEPLNGESSESCCPTSR at or over 4 in terms of protein stability index?
Not fulfilled

Check the entry PCCSSKPEEPLNGESYESCCPTSR : does protein stability index equal or exceed 4?
Not fulfilled

hey, is protein stability index for this one >= 4? PCCSSSPEEDLNGESYESCCPTSR
Fulfilled

Does the variant PCCSSSPEEPLNGESYESCCPTSH have recorded protein stability index that is 4 or more?
Fulfilled

Exam item: decide whether the reported protein stability index for PCCSSSPEEPLNGESYESCCPTDR is at least 4.
Fulfilled

Is reported protein stability index greater than or equal to 4 here: PTCSSSPEEPLNGESYESCCPTSR
Fulfilled

For this variant, is measured protein stability index 4 or higher? PCCSSSPEFPLNGESYESCCPTSR
Not fulfilled

Evaluate PCCKSSPEEPLNGESYESCCPTSR : protein stability index at minimum 4?
Not fulfilled

Hi, just wondering whether PCCSSSPEEWLNGESYESCCPTSR shows protein stability index of 4 or higher.
Not fulfilled

Evaluate PCCSSSPHEPLNGESYESCCPTSR : protein stability index at minimum 4?
Not fulfilled

Does PCCSSHPEEPLNGESYESCCPTSR have a reported protein stability index of at least 4?
Not fulfilled

Entry PCDSSSPEEPLNGESYESCCPTSR : is its protein stability index no less than 4?
Fulfilled

Confirm if protein stability index reported for the variant DCCSSSPEEPLNGESYESCCPTSR is 4 or above.
Fulfilled

Dear colleague, could you confirm whether PCCSSSPEEPLNGESYESCEPTSR has protein stability index at or above 4?
Fulfilled

Could you please find out whether PCCSDSPEEPLNGESYESCCPTSR has protein stability index that meets 4 or exceeds it?
Fulfilled

Check the entry PCCSSSPKEPLNGESYESCCPTSR : does protein stability index equal or exceed 4?
Not fulfilled

Check if protein stability index >= 4 (inclusive). Item: PCCSSSPEEPLNGESYESGCPTSR
Not fulfilled

Exam item: decide whether the reported protein stability index for PCCSSSLEEPLNGESYESCCPTSR is at least 4.
Not fulfilled

Is reported protein stability index greater than or equal to 4 here: PCCSSSGEEPLNGESYESCCPTSR
Not fulfilled

Does the reported protein stability index for PCCSSSPEEPLNGESYESCCPLSR fall at or above the 4 mark?
Not fulfilled

Please tell me: is the variant PCCSSSPEEPLNNESYESCCPTSR at or over 4 in terms of protein stability index?
Not fulfilled

Does protein stability index meet or surpass 4 for PCCSSSPEEPLNGESYESCCPTTR ?
Fulfilled

# bool: protein stability index of PCCSKSPEEPLNGESYESCCPTSR >= 4
Not fulfilled

// inclusive: protein stability index at least 4? input: PCCSSPPEEPLNGESYESCCPTSR
Not fulfilled

Hello, I need to know if PCCSSSQEEPLNGESYESCCPTSR has measured protein stability index not below 4. Thanks!
Fulfilled

Evaluate PCCSSSPEEPLNGESYESCCPHSR : protein stability index at minimum 4?
Not fulfilled

Confirm if protein stability index reported for the variant PCCSSSPAEPLNGESYESCCPTSR is 4 or above.
Not fulfilled

Threshold query (protein stability index >= 4) on PCCSSSPEEPLNGESYESCCETSR
Fulfilled

Is protein stability index at least 4? Consider PCCSSSPEEPLNGISYESCCPTSR
Not fulfilled

Does protein stability index meet or surpass 4 for PCCSSSPEEPLNGESYESCDPTSR ?
Fulfilled

Form field: protein stability index at least 4? Entry: VCCSSSPEEPLNGESYESCCPTSR
Not fulfilled

Hi, just wondering whether PCCSESPEEPLNGESYESCCPTSR shows protein stability index of 4 or higher.
Fulfilled

Entry PCCSSSPEEPLNVESYESCCPTSR : is its protein stability index no less than 4?
Not fulfilled

I'd appreciate it if you could say whether HCCSSSPEEPLNGESYESCCPTSR has protein stability index at least equal to 4.
Not fulfilled

Is the recorded value of protein stability index equal to or greater than 4 for this variant? YCCSSSPEEPLNGESYESCCPTSR
Not fulfilled

Item PCCSSSPEPPLNGESYESCCPTSR with protein stability index of 4 or above?
Not fulfilled

Does the variant PHCSSSPEEPLNGESYESCCPTSR have recorded protein stability index that is 4 or more?
Fulfilled

State whether the measured protein stability index reaches 4, counting equality as reaching it, for PCCSSSPEEPLNGESYCSCCPTSR
Fulfilled

# check: protein stability index of PCCSSSPEEPLNGESPESCCPTSR is greater than or equal to 4
Fulfilled

Please check the record PCCSSSPEEPLSGESYESCCPTSR and state if its protein stability index is at or above 4.
Fulfilled

Could you tell me if the measured protein stability index of PCCSSSPEEPLNGESYSSCCPTSR reaches 4 or more?
Not fulfilled

In plain terms: is recorded protein stability index at least 4 for PCCSSSPEEPLNGESYESCCPTQR ?
Fulfilled

Dear colleague, could you confirm whether PCCSSSPEEPLNGESYESECPTSR has protein stability index at or above 4?
Fulfilled

I'd appreciate it if you could say whether PPCSSSPEEPLNGESYESCCPTSR has protein stability index at least equal to 4.
Fulfilled

# check: protein stability index of PCCSSSPEEPLNGESYESCCPTSP is greater than or equal to 4
Fulfilled

In plain terms: is recorded protein stability index at least 4 for PCCSSSPEHPLNGESYESCCPTSR ?
Not fulfilled

Record PCWSSSPEEPLNGESYESCCPTSR ; criterion: protein stability index no lower than 4. Met?
Fulfilled

// inclusive: protein stability index at least 4? input: PCCSSSPEQPLNGESYESCCPTSR
Not fulfilled

Hi team, for PGCSSSPEEPLNGESYESCCPTSR , is the recorded protein stability index at or above 4?
Fulfilled
